- Experimental Target: HEK-Blue-hTLR9 cells (Homo sapiens)
- Assay Info: HEK-Blue-hTLR9 cell inhibition assay
- Condition Description: ODN2006 1 µM, 16 h, OD 620 nm, read-out: TLR9 IC50
pIC50: −log10 of the molar value.
# maps each entry to its pIC50

CN1CCC(c2nnc([C@]34CN(c5ccc(C#N)c6ncccc56)C[C@@]3(C(F)(F)F)C4)[nH]2)CC1; < 6.00

// next entry
input: Specify reported pIC50 for the compound shown: CN(C)Cc1nnc([C@]23CN(c4ccc(C#N)c5ncccc45)C[C@@]2(C(F)(F)F)C3)o1
output: < 5.00

---

- Experimental Target: HEK-Blue-hTLR9 cells (Homo sapiens)
- Sequence (Q9NR96 26-1032): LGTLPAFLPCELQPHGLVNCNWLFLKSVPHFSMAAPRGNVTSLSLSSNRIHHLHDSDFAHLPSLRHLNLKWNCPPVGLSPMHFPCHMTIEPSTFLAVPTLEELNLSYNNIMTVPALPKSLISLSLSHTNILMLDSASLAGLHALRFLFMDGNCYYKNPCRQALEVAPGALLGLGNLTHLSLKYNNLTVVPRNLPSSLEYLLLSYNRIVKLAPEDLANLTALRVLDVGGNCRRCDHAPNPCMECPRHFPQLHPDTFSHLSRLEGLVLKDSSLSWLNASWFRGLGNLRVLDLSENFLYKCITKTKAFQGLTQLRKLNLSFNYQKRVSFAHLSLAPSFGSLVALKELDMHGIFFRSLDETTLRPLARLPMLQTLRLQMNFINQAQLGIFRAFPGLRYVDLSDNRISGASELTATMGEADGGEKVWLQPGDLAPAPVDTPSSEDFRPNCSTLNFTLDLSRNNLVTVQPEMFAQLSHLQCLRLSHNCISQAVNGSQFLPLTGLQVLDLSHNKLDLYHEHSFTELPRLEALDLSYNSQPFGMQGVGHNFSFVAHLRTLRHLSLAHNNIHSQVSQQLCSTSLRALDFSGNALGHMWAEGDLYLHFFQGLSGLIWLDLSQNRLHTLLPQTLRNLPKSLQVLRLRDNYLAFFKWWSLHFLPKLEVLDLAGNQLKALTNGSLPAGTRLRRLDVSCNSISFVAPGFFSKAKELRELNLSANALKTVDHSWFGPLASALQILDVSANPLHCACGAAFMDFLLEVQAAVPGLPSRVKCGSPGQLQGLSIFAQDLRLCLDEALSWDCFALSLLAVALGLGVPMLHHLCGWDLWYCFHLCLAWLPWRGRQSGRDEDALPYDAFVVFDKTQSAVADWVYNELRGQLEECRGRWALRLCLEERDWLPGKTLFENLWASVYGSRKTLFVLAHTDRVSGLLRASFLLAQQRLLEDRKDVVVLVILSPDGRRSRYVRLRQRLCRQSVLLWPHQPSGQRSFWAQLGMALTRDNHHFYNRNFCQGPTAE
- Assay Info: HEK-Blue-hTLR9 cell inhibition assay
- Condition Description: ODN2006 1 µM, 16 h, OD 620 nm, read-out: TLR9 IC50
pIC50: −log10 of the molar value.
Measure: pIC50

CN1CCC(c2nnc([C@]34CN(c5ccc(C#N)c6ncccc56)C[C@@]3(C(F)(F)F)C4)o2)CC1=O (stereo partly shown) [Compound 34]; < 5.00
NC12CCC(c3nnc([C@]45CN(c6ccc(C(F)(F)F)c7ncccc67)C[C@@]4(C(F)(F)F)C5)o3)(CC1)CC2 [Compound 81]; < 6.00
N#Cc1ccc(N2C[C@]3(c4nnc(C5CCNCC5F)o4)C[C@]3(C(F)(F)F)C2)c2cccnc12 (stereo partly shown) [Compound 33]; < 6.00

input: Recall the reported pIC50 of CN1CC(F)(c2nnc([C@]34CN(c5ccc(C#N)c6ncccc56)C[C@@]3(C(F)(F)F)C4)o2)C1 [Compound 49] on HEK-Blue-hTLR9 cells (Homo sapiens) and write it down.
output: < 5.00

input: Recall the reported pIC50 of CN1CC(Cc2nnc([C@]34CN(c5ccc(C#N)c6ncccc56)C[C@@]3(C(F)(F)F)C4)o2)C1 [Compound 36] on HEK-Blue-hTLR9 cells (Homo sapiens) and write it down.
output: < 6.00

input: Recall the reported pIC50 of CN1CCC(Oc2nnc([C@]34CN(c5ccc(C#N)c6ncccc56)C[C@@]3(C(F)(F)F)C4)o2)CC1 [Compound 15] on HEK-Blue-hTLR9 cells (Homo sapiens) and write it down.
output: < 6.00

input: Recall the reported pIC50 of CN1CCC(c2nnc([C@]34CN(c5ccc(C#N)n6ncc(Cl)c56)C[C@@]3(C(F)(F)F)C4)o2)CC1 [Compound 84] on HEK-Blue-hTLR9 cells (Homo sapiens) and write it down.
output: < 6.00
